- TARGET_OF_ASSAY: chymotrypsin (Bos taurus, UniProt P00766)
- TEST_METHOD_NOTES: competitive inhibition of chymotrypsin, standard assay using a BTEE substrate
- Format: biochemical
Measured Ki, listed per entry for reference.
Lab book: enter the figure in µM, no units written.

O=C([N-][N+]1(CC(O)c2ccccc2)CCCCC1)c1ccccc1 (stereo not drawn) [R1=Ph, R2=Ph]	500
CC(O)C[N+]1([N-]C(=O)c2ccccc2)CCCCC1 (stereo not drawn) [R1=Me, R2=Ph]	130

Okay, now this molecule:
Enquiry: If you can, please state the reported Ki value of CC(=O)[N-][N+]1(CC(O)c2ccccc2)CCCCC1 (stereo not drawn) [R1=Ph, R2=Me] .
Return: 200
